System: MS2 coat protein
assay: apparent KD of MS2 coat protein; designed switch direction (-1 OFF switch, 1 ON switch): 1; higher = weaker reporter binding
settings: Eterna round: R95; input ligand: FMN 200 uM
quantity.measured: apparent KD of MS2 coat protein (nM)
Just the number please, in nM, no unit attached.

Recorded results for 8 sequences are shown here.
{"columns": ["construct.sequence", "apparent KD of MS2 coat protein / nM"],
 "data": [
  ["GGAGCCGGCACCGAGGAUAUUCAUAUUAAAACAUGAGGAUCACCCAUGUAGAGGAGAACCUCUUGGGAGAAGGCGGAUCGGCUCG [Xeonanis - 26] (puzzle: Same State 2)", 289],
  ["GCAGAACAUGAGGAUCACCCAUGUCUCUAAUAUUGAGGAUAUGGACACGGUAUAUCCGAACCAGAAGGCGAACUGC [SS1 Teenbexe 17] (puzzle: Same State 1)", 27.5],
  ["AGUCCAGCAAGAGCUGGACAAAAGCAUGUACAUGAGGAUCACCCAUGUCAUGUACAAGCUUUUUGCUCGUCUUAAAA [Mat - hsa-mir-208a - Mod of JL - D3] (puzzle: Sensor for hsa-mir-208a)", 456],
  ["UGUUAACAUGAGGAUCACCCAUGUCAAAUGAAUGCAGGAUAUGGGAAGUAAUAAGAUAAACCAGAAGGGCAAGUUG [Altered State 1-17 - Jieux - Same State 1] (puzzle: Same State 1)", 49.4],
  ["UCAAGCGUUUGGCUCGUUUUAUGUGUUGAACAUGAGGAUCACCCAUGUAUUGUACGAUCCAGUUAGAUGGUAUUUUG [JR_SHM208A_Sub040] (puzzle: Sensor for hsa-mir-208a)", 46.9],
  ["CGGCGCUGUCGAGAGGAUAUGCGGUGAUGGACAUGAGGAUCACCCAUGUUAGCGAUAGCAUCACGGUAGAAGGCUCUUACGCCUG [Soteed Omei mod 23] (puzzle: Same State 2)", 91.5],
  ["AGUCCAGCCUGAGCUGGACAAAAGCGUGUACAUGAGGAUCACCCAUGUUCAUGUACAAGCUUUUUGCUCGUCUUAAA [Zipper 52 - 6] (puzzle: Sensor for hsa-mir-208a)", 25.7],
  ["AUAAGUUCGAUGCUCGUCUCUCCGUACAAACAUGAGGAUCACCCAUGUGAUUGGACAAAAGCCCAAUCAGUAUGGCC [Cebeince] (puzzle: Sensor for hsa-mir-208a)", 35.9]
]}

Problem: Form field: reported apparent KD of MS2 coat protein of GGUCCAGCCUGAGCUGGACAAAAGCAUGUACAUGAGGAUCACCCAUGUCAUGUACAAGCUUUUUGCUCGUCAUAAUG [Mat - hsa-mir-208a - 99] (puzzle: Sensor for hsa-mir-208a)
Solution: 713

Problem: Form field: reported apparent KD of MS2 coat protein of GGUCCAGCCUGAGCUGGACAAAAGCAUGUACAUGAGGAUCACCCAUGUCAUGUACAAGCUUUUUGCUCGUCUAAAUU [Mat - hsa-mir-208a - 94] (puzzle: Sensor for hsa-mir-208a)
Solution: 781

###

Catalogue of apparent KD of MS2 coat protein values
Tested on: MS2 coat protein
assay: apparent KD of MS2 coat protein; designed switch direction (-1 OFF switch, 1 ON switch): 1; higher = weaker reporter binding
settings: input ligand: none
Just the number please, in µM, no unit attached.

Recorded results for 4 sequences are shown here.
{"columns": ["construct.sequence", "result.units", "apparent KD of MS2 coat protein"],
 "data": [
  ["UUUAGAUCGCGAGGAUAUCGCGAGGAUCACCCGUGAGAAGGCGCAGAGCCGAGGAUCACCCGGCUGAUCCUGAGGAGGAGGUCU (Eterna round: R96, puzzle: Same State NG 1)", "µM", 0.269],
  ["CCGAUGAUAGGACAGGAUAUGACUGUCGUCACAUGAGGAUCACCCAUGUCCCGGCAAUGCCACCGUUAGAAGGGUCCCAUCUCGG [Uslainarin] (Eterna round: R96, puzzle: Same State 2)", "µM", 0.0238],
  ["GCUUCGGCGGUAGGAUAUCUAGGAUAUGGGAAGAGCUAAGCUUGGAAGUCACUUCACCCAGAAGGAGAGAAGGACACCUUCGGG [pwkr ssNG2 2FMN + F9.4] (Eterna round: R96, puzzle: Same State NG 2)", "µM", 0.047],
  ["AUUACUAGCAUAGGAUAUCAUGCGAAAAUUGCGUGAGAAGGGUGGACGCUGUCAUUCACGGAAGACAUGAGGAUCACCCAUGUC [SameState NG1 #74] (Eterna round: R96, puzzle: Same State NG 1)", "µM", 0.094]
]}

Problem: Form field: reported apparent KD of MS2 coat protein of ACUUGCGGCACAGGAUAUGGGUGCCUGUACAUGAGGAUCACCCAUGUUAAGGGACGGAUUACGAACCAGAAGGGUGAGGCGGGC [Aqube] (Eterna round: R96, puzzle: Same State NG 2)
Solution: 0.3
